system: DNA-dependent protein kinase catalytic subunit (Homo sapiens)
Sequence (P78527 whole entry): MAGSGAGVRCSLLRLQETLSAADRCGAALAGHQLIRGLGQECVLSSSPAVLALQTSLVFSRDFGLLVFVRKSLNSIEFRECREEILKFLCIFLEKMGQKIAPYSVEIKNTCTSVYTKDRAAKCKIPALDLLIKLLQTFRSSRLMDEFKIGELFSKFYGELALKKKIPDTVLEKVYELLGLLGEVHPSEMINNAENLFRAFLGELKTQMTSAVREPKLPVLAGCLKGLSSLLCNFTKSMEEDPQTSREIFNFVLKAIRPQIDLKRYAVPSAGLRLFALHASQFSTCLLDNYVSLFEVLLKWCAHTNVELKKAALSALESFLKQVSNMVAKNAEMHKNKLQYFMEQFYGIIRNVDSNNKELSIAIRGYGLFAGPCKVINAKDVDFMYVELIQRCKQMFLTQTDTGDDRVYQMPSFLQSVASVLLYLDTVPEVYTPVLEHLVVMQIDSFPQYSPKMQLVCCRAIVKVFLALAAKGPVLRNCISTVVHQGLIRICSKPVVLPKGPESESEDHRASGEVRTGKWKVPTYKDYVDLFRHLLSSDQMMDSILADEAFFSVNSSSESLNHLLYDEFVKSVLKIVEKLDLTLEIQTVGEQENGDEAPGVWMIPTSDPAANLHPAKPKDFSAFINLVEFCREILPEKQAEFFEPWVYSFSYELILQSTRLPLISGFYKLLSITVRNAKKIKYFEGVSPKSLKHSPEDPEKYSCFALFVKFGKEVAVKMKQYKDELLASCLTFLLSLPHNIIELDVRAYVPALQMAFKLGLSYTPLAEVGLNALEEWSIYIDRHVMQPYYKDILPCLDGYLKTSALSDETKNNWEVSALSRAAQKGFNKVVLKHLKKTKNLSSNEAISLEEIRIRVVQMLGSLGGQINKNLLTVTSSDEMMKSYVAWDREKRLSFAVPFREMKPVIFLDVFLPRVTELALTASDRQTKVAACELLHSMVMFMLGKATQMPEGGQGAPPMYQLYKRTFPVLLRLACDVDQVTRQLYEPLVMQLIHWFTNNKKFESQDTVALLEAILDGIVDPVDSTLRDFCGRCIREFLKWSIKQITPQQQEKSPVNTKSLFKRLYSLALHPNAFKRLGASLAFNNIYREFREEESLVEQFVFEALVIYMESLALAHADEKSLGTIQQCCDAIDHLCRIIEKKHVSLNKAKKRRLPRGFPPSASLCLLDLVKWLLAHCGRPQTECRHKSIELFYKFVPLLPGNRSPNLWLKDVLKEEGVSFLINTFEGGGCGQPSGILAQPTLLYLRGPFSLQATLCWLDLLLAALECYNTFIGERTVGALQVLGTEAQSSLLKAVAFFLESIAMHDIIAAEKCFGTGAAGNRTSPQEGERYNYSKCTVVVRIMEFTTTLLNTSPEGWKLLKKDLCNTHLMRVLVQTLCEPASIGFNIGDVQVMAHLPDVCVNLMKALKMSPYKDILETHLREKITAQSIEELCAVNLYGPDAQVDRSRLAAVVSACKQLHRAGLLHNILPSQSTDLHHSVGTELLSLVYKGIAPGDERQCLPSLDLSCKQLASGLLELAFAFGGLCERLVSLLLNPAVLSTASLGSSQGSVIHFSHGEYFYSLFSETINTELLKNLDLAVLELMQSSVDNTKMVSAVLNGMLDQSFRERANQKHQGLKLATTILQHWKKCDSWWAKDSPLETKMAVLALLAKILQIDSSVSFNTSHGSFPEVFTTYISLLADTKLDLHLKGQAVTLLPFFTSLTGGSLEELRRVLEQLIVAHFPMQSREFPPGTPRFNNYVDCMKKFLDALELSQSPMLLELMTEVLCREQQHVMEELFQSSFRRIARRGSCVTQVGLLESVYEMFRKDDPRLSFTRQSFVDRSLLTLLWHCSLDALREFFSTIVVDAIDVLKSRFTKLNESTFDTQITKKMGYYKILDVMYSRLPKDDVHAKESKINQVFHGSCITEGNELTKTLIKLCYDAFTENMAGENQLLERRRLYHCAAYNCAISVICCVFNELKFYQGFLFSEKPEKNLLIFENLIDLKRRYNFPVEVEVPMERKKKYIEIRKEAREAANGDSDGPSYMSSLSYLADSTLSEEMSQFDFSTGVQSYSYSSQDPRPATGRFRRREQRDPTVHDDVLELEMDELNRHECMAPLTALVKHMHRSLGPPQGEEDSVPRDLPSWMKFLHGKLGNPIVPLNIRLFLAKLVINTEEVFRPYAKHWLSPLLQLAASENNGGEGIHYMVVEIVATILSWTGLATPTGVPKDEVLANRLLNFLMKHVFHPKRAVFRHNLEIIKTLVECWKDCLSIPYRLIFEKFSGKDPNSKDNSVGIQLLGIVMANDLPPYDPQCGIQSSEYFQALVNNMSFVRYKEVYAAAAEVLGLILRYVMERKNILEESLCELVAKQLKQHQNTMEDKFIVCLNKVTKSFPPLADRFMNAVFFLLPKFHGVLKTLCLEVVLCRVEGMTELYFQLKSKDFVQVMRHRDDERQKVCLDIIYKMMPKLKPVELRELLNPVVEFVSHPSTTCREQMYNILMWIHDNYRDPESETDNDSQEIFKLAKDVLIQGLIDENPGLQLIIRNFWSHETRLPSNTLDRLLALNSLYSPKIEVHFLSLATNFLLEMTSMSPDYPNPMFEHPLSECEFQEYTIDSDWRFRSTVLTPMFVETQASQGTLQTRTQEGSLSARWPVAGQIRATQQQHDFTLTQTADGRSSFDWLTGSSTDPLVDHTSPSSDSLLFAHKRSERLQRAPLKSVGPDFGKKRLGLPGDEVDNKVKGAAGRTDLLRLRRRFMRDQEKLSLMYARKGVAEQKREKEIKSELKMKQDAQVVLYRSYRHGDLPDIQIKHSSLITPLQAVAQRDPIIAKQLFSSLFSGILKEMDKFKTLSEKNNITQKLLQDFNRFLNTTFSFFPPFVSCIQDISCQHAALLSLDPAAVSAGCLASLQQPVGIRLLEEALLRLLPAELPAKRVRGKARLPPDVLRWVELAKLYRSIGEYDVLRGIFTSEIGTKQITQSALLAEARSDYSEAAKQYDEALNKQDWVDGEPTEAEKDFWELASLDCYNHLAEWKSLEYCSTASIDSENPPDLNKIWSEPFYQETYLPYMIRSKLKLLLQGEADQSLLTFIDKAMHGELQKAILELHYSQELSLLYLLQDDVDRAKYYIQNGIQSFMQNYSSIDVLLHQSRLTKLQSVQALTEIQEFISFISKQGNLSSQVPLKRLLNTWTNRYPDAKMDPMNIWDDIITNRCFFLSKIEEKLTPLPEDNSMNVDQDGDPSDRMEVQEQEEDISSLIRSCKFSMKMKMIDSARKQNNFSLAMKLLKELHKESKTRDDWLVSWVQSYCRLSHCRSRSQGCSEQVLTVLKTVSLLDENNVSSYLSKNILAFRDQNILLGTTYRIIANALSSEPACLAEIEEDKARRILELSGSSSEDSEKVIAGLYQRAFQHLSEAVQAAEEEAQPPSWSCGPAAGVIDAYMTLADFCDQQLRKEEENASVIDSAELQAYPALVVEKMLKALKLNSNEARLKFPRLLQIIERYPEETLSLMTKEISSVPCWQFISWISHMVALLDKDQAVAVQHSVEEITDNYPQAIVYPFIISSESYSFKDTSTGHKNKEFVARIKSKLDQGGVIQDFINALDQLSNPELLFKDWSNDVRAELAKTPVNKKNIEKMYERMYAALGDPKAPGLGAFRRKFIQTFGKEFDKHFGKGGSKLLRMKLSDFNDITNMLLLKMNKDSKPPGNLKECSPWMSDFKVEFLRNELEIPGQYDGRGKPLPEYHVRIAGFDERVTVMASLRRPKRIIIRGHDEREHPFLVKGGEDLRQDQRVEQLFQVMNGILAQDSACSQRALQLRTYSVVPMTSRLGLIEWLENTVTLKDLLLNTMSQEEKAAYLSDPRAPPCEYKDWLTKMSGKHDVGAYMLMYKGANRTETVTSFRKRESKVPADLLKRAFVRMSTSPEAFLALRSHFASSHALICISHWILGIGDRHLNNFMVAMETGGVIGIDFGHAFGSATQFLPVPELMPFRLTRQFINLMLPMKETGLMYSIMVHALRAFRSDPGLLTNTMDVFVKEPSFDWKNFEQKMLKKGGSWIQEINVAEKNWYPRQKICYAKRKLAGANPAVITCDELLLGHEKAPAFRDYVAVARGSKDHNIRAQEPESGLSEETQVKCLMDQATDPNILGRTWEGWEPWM
test protocol: DNA-PK Assay (Biochemical): The kinase assay was carried out in streptavidin-coated […] microtitre flashplates. […] The reaction was stopped using 50 μl/well of 200 mM EDTA. After incubation for a further 30 min at room temperature, the liquid was removed. Each well was washed three times with 100 μl of 0.9% saline solution. A nonspecific reaction (blank value) was determined using 10 μM of an innate kinase inhibitor. The radioactivity measurement was carried out using a TopCount. IC50 values were calculated in RS1.
pIC50: −log10 of the molar value.
reported property: pIC50

# input compound: NC(=O)C(c1cc(-c2ncnc3cc(N4CCOCC4)ccc23)c(F)cc1Cl)c1ncnn2cccc12 (configuration not stated) ; wanted: its pIC50 < 7.52

Okay, and OCc1csc(C(O)c2cc(-c3ncnc4cc(N5C6CCC5COC6)ccc34)c(F)cc2Cl)n1 (configuration not stated) ? < 7.52
